molecular target: Human PI3K delta (Homo sapiens, UniProt O00329); construct: His (N); host or cells: SF9 insect cells (baculovirus); assay: Human PI3K delta enzyme assay (HTRF); assay type: biochemical; conditions: concentration not given; b1389 states 1.0 μM for PI3K δ and γ; read-out: p110 delta Percent Inhibition
Sequence (O00329 whole entry): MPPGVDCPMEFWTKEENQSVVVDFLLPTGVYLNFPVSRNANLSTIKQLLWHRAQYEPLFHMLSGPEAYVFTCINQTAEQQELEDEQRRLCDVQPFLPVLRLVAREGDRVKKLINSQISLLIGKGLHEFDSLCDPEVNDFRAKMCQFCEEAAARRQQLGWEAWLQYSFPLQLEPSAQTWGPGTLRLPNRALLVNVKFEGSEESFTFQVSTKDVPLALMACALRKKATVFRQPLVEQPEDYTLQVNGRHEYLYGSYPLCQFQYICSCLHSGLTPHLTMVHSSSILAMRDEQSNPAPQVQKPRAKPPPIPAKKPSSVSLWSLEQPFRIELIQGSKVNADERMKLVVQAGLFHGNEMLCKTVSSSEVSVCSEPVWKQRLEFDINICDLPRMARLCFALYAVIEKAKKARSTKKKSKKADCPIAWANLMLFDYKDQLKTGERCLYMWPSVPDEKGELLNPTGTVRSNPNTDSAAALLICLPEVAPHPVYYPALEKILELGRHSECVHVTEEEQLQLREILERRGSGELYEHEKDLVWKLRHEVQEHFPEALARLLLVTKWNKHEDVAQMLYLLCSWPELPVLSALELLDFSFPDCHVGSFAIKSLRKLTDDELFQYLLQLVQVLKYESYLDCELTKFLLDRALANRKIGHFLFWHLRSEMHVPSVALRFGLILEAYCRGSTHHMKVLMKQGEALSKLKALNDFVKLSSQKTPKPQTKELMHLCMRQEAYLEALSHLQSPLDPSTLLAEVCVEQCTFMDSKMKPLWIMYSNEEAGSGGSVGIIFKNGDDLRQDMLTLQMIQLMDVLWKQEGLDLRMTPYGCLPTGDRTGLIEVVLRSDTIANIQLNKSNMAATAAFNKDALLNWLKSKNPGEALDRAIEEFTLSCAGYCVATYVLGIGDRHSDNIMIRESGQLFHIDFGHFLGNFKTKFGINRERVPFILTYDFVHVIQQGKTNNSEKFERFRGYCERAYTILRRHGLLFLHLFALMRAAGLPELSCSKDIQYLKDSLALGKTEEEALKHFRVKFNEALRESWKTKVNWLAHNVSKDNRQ
Sequence (P27986 whole entry partner): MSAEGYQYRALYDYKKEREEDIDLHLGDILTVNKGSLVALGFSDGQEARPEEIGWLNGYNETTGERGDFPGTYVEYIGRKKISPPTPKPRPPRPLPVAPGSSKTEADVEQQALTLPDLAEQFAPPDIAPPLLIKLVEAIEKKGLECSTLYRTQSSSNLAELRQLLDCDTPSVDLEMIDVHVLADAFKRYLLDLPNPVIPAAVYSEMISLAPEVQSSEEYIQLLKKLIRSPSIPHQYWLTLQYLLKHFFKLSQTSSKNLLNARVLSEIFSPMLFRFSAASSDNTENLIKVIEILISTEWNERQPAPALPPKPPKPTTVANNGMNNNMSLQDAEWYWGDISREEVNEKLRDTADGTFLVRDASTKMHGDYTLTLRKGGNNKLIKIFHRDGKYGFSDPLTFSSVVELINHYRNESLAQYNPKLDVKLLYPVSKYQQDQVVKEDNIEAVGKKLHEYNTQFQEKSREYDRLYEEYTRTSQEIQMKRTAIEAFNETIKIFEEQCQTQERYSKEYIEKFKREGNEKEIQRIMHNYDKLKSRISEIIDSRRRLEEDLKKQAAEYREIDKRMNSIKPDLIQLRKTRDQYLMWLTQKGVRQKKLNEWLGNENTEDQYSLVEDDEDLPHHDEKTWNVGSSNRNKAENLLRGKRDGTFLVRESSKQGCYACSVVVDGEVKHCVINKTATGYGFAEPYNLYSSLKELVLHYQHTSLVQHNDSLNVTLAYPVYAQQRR
readout name: inhibition at 1 µM (%)

# annotated cases, reported inhibition at 1 µM shown
> print(dat)
                                   molecule        readout.name  value
1  O=C(O)c1sc(N2CCOCC2)nc1Cc1ccc2ccc(F)cc2c1 [Compound 310]  inhibition at 1 µM    105
2  Nc1cc(-c2cc(C(c3ccc(Cl)cc3)N3CCNCC3)c(-c3nnc[nH]3)s2)ccn1 (centres unmarked) [Compound 254]  inhibition at 1 µM     91
3  N#Cc1c(N2CCOCC2)sc(C(=O)O)c1Cc1ccc2ccccc2c1F [Compound 293]  inhibition at 1 µM    110
4  O=C(O)c1sc(N2CCOCC2)nc1Cc1ccc2cccc(F)c2c1 [Compound 299]  inhibition at 1 µM    108
5  OC(c1ccc(F)cc1Cl)c1cc(-c2ccncc2)sc1-c1nnc[nH]1 (centres unmarked) [Compound 187]  inhibition at 1 µM     77

I. CNC1CN(C(c2ccc(Cl)cc2)c2cc(-c3ccnc(NC(C)=O)c3)sc2-c2nnc[nH]2)C1 (centres unmarked) [Compound 170]
II. OC(c1ccc(C(F)(F)F)cc1)c1cc(-c2ccncc2)sc1-c1nnc[nH]1 (centres unmarked) [Compound 142]
Exercise: Consider I and II . Which of these has its inhibition at 1 µM at a higher number? Use the label to indicate which entry you chose.
Solution: I
(I: 105%, II: 47%)

P. N#Cc1c(N2CCOCC2)sc(C(=O)O)c1C(N)c1ccc(Cl)c(Cl)c1 (centres unmarked) [Compound 291]
Q. O=C(O)Cc1sc(N2CCOCC2)nc1Cc1ccc(Cl)c(Cl)c1 [Compound 348]
Exercise: Compare inhibition at 1 µM: is it lower for P or for Q ? Identify your pick by its label.
Solution: Q

----------
target: Human PI3K beta (Homo sapiens, UniProt P42338); construct: His (N); host or cells: SF9 insect cells (baculovirus); test: Human PI3K beta enzyme assay (HTRF); format: biochemical; conditions: concentration not given; b1387 states 1.1 μM for PI3K α and β
Sequence (P42338 whole entry): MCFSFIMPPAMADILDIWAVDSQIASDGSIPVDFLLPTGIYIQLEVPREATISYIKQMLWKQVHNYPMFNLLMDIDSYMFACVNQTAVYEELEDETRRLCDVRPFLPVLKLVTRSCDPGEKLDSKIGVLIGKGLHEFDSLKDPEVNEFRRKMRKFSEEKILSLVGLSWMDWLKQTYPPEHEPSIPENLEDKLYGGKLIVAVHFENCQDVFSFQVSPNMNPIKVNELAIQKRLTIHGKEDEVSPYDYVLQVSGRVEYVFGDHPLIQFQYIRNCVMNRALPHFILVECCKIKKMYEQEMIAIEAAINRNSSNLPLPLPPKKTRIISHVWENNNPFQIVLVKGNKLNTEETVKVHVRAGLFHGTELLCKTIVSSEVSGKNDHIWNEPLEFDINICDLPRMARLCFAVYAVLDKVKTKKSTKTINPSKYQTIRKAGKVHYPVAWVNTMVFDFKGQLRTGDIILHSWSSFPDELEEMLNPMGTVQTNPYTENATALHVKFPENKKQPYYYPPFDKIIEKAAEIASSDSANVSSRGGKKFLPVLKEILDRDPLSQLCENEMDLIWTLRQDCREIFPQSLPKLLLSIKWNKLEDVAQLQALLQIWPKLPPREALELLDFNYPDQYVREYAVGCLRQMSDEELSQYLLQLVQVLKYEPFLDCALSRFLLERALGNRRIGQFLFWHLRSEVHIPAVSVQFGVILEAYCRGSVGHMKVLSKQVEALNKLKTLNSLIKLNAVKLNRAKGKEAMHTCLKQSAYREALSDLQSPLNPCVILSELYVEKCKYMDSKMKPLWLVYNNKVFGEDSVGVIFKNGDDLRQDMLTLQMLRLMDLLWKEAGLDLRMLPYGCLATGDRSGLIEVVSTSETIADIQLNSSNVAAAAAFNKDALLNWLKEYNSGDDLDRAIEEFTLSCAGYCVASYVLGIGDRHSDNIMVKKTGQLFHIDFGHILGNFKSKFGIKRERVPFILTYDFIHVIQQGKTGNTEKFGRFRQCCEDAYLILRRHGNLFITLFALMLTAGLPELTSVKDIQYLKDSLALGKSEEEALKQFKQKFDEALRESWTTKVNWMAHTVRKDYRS
Sequence (P27986 whole entry partner): as the sequence (P27986 whole entry partner) above
readout name: p110 beta Percent Inhibition (%)

> print(dat)
                                   compound  units.symbol  value
1  CN(C)C(c1ccc(Cl)c(Cl)c1)c1c(C(=O)O)sc(N2CCOCC2)c1C#N (centres unmarked) [Compound 336]             %     90
2  CC(=O)Nc1cc(-c2cc(C(c3ccc(Cl)cc3)N3CCC[C@H]3CO)c(-c3nnc[nH]3)s2)ccn1 (single isomer, unassigned) [Compound 192]             %     90
3  CN(C)C(c1ccc(Cl)c(Cl)c1)c1c(C(=O)O)sc(N2CCOCC2)c1C#N (centres unmarked) [Compound 362]             %    116
4  COc1cc(C(O)c2cc(-c3ccnnc3)sc2-c2nnc[nH]2)c(F)cc1Cl (centres unmarked) [Compound 168]             %    107
5  COc1cc(C(O)c2cc(-c3ccnc(C)c3)sc2-c2nnc[nH]2)c(F)cc1Cl (centres unmarked) [Compound 285]             %     83
6  OC(c1cc2ccccc2cc1F)c1cc(-c2ccncc2)sc1-c1nnc[nH]1 (centres unmarked) [Compound 284]             %    114
7  OC(c1ccc2ccccc2c1)c1cc(-c2ccncc2)sc1-c1nnc[nH]1 (centres unmarked) [Compound 208]             %    108
8  N#Cc1c(N2CCOCC2)sc(C(=O)O)c1C(CCO)c1ccc2ccccc2c1 (centres unmarked) [Compound 363]             %    113

----------
target: Human VPS34 (Homo sapiens); construct: GST (with thrombin site, pDEST20-Thrombin) (N); host or cells: SF9 insect cells (baculovirus); test: Human VPS34 enzyme assay (Adapta Universal Kinase Assay); assay type: biochemical; settings: at a 1.0 μM concentration; read-out: VPS34 Percent Inhibition
readout name: inhibition at 1 µM (%)

For orientation, consider the following solved cases.
> print(dat)
                                     smiles  value
1  N#Cc1c(N2CCOCC2)sc(C(=O)O)c1Cc1ccc(F)cc1     45
2  O=C(O)c1sc(N2CCOCC2)nc1Cc1ccc(Cl)c(Cl)c1    131
3     O=C(O)c1sc(N2CCOCC2)nc1Cc1ccc(F)cc1Cl   46.7
4  COc1cc(Cl)ccc1Cc1c(C(=O)O)sc(N2CCOCC2)c1C#N   37.1
5  N#Cc1c(N2CCOCC2)sc(C(=O)O)c1Cc1ccc(Cl)cc1   54.2
6  N#Cc1c(N2CCOCC2)sc(C(=O)O)c1Cc1ccc2ccccc2c1   37.8

I. COc1ccc(Cc2c(C(=O)O)sc(N3CCOCC3)c2C#N)c(Cl)c1
II. O=C(O)c1sc(N2CCOCC2)nc1Cc1ccc2ccccc2c1
Exercise: Pick one: I or II . Which one has the lower reported inhibition at 1 µM? Your choice should be expressed through its label.
Solution: I

A. O=C(O)c1sc(N2CCOCC2)nc1Cc1ccc(C(F)(F)F)cc1
B. O=C(O)c1sc(N2CCOCC2)nc1Cc1ccc(OC(F)(F)F)cc1
Exercise: Of the two listed items, which has the higher inhibition at 1 µM? First: A Second: B Pick one and reply with its label.
Solution: A
(A: 46.8%, B: 24%)

P. COc1ccc(Cc2c(C(=O)O)sc(N3CCOCC3)c2C#N)cc1Cl
Q. COc1cc(Cc2c(C(=O)O)sc(N3CCOCC3)c2C#N)c(F)cc1Cl
R. O=C(O)c1sc(N2CCOCC2)nc1Cc1ccc(F)cc1
Exercise: Rank the 3 compounds: largest inhibition at 1 µM first, smallest last. Respond with an ordered listing of the labels, as requested.
Solution: P, Q, R
(P: 62.4%, Q: 33.7%, R: 19.5%)

a. N#Cc1ccc(Cc2nc(N3CCOCC3)sc2C(=O)O)cc1
b. O=C(O)c1sc(C2=CCOCC2)nc1Cc1ccc(Cl)cc1
Exercise: Between the entries labeled a and b , whose measured inhibition at 1 µM is lower? Lab note: record the label of whichever item you select.
Solution: a
(a: 19.2%, b: 36.6%)

----------
target: Human VPS34 (Homo sapiens, UniProt Q8NEB9); construct: GST (with thrombin site, pDEST20-Thrombin) (N); host or cells: SF9 insect cells (baculovirus); experiment: Human VPS34 enzyme assay (Adapta Universal Kinase Assay); type: biochemical; conditions: at a 1.0 μM concentration; read-out: VPS34 Percent Inhibition
Sequence (Q8NEB9 whole entry): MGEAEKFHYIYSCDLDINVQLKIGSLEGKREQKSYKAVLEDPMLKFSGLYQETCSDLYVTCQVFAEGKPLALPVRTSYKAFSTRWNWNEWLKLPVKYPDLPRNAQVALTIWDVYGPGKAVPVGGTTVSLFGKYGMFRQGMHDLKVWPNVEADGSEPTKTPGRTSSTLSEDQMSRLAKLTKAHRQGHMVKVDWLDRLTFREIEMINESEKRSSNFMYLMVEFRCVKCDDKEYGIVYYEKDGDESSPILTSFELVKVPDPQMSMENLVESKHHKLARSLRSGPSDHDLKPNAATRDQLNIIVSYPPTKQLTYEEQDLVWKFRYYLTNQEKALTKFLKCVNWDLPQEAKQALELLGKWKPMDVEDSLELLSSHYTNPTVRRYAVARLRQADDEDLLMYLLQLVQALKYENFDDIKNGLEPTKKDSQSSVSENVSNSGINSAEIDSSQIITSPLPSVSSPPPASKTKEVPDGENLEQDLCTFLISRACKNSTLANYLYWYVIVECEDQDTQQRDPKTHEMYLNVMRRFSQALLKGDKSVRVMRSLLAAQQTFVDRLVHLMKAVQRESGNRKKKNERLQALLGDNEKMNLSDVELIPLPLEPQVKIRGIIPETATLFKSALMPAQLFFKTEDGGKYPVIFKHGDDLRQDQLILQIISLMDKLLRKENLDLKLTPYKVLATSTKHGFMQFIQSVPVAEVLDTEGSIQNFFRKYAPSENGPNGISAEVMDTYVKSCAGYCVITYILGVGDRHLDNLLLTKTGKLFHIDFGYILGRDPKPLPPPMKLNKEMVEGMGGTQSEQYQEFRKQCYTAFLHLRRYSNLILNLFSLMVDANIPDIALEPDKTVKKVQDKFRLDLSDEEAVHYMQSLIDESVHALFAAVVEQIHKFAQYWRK
readout name: inhibition at 1 µM (%)

P. N#Cc1c(C2=CCOCC2)sc(C(=O)O)c1Cc1ccc(Cl)cc1 [Compound 95]
Q. N#Cc1ccc(Cc2c(C(=O)O)sc(N3CCOCC3)c2C#N)cc1 [Compound 115]
Exercise: Between P and Q , whose recorded inhibition at 1 µM is greater? Returns: label corresponding to the selected item.
Solution: P
(P: 167%, Q: 39.7%)

----------
target: Human PI3K delta (Homo sapiens, UniProt O00329); construct: His (N); host or cells: SF9 insect cells (baculovirus); test: Human PI3K delta enzyme assay (HTRF); format: biochemical; conditions: concentration not given; b1389 states 1.0 μM for PI3K δ and γ; read-out: p110 delta Percent Inhibition
readout name: inhibition at 1 µM (%)

> print(dat)
                                   compound        readout.name  units.symbol  value
1  O=C(O)c1sc(N2CCOCC2)nc1Cc1cc(Cl)c(Cl)cc1F [Compound 290]  inhibition at 1 µM             %    104
2  CC(=O)Nc1cc(-c2cc(C(c3ccc(Cl)cc3)N3CCC[C@@H]3CO)c(-c3nnc[nH]3)s2)ccn1 (stereo partly shown) [Compound 268]  inhibition at 1 µM             %    102
3  CC(C)(C)[S+]([O-])NC(c1ccc2ccccc2c1)c1c(C(=O)O)sc(N2CCOCC2)c1C#N (stereo not shown) [Compound 323]  inhibition at 1 µM             %     97
4  CC(=O)Nc1cc(-c2cc(C(c3ccc(Cl)cc3)n3ccnc3)c(-c3nnc[nH]3)s2)ccn1 (stereo not shown) [Compound 167]  inhibition at 1 µM             %    110

----------
target: Human PI3K beta (Homo sapiens); construct: His (N); host or cells: SF9 insect cells (baculovirus); assay: Human PI3K beta enzyme assay (HTRF); format: biochemical; conditions: at a 1.1 μM concentration; read-out: PI3β Percent Inhibition
readout name: inhibition at 1.1 µM (%)

Examples with answers:
> print(dat)
                                     smiles  units.symbol  value
1  N#Cc1ccc(Cc2c(C(=O)O)sc(N3CCOCC3)c2C#N)cc1             %     97
2  COc1ccc(Cc2c(C(=O)O)sc(N3CCOCC3)c2C#N)c(Cl)c1             %     94
3  COc1ccc(Cc2c(C(=O)O)sc(N3CCOCC3)c2C#N)cc1             %     98

I. O=C(O)c1sc(N2CCOCC2)nc1Cc1ccc2c(c1)OCCO2
II. N#Cc1c(N2CCOCC2)sc(C(=O)O)c1Cc1ccc(Cl)cc1
Exercise: Compare reported inhibition at 1.1 µM values for I and II . Which is lower? I would appreciate it if you answered with the label of your choice.
Solution: I
